- ASSAY_TARGET: PTPase from thermus thermophilus HB27 (Thermus thermophilus)
- Construct: recombinant, cloned into pET-28a(+), E. coli BL21(DE3), purified; LMW PTPase EC 3.1.3.48; P-loop CLGNICRS, residues Cys11, Cys16, Arg17, Asp123 (Tt1001)
- Sequence (Q72JF6 1-161): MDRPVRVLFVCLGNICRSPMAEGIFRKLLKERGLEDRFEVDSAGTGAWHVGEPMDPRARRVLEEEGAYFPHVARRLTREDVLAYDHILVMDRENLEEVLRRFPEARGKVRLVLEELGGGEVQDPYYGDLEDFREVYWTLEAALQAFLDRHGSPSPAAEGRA
- PROCEDURE_DETAILS: residual pNPP phosphatase activity, absorbance […] nm
REPORTED_ENDPOINT: pIC50
In textbook form, pIC50 equals minus log to base ten of the concentration in mol/L.

For this compound ( CCCCCCCCCCCCOS(=O)(=O)O ), measured pIC50 is 4.95
